tested on: Clostridium perfringens; experiment: Tested for zone of inhibition against Clostridium perfringens UC6509; format: functional
testReadout: Diameter of inhibition zone
# answer = value followed by unit

# cpdSmiles, measuredResult
records = [
    ("CCCCCC(=O)N1C/C(=C(\\C)COC(C)=O)C1=O", "0 mm"),
]

Task item: Item CC(=O)OC[C@H](C)[C@H]1CN(C(C)=O)C1=O has what recorded Diameter of inhibition zone?
Reply: 0 mm

Task item: Find the recorded Diameter of inhibition zone belonging to CCCC(=O)OC[C@H](C)[C@H]1CN(C(=O)CCC)C1=O and report it.
Reply: 33 mm

Task item: Diameter of inhibition zone lookup needed for COCCOC(=O)N1C/C(=C(\C)CN=[N+]=[N-])C1=O , thanks.
Reply: 20 mm

Task item: Reported Diameter of inhibition zone for CC(=O)OC[C@@H](C)[C@H]1CN(C(C)=O)C1=O : what is it?
Reply: 36 mm

Task item: Consider the molecule CCCC(=O)N1C/C(=C(\C)COC(C)=O)C1=O and give its measured Diameter of inhibition zone.
Reply: 0 mm

Task item: May I ask what Diameter of inhibition zone has been recorded for CCCCCC(=O)N1C/C(=C(\C)CF)C1=O ?
Reply: 78 mm

Task item: Consider the molecule CCCC(=O)N1C[C@H]([C@@H](C)COC(C)=O)C1=O and give its measured Diameter of inhibition zone.
Reply: 0 mm

Task item: So what does the record say about Diameter of inhibition zone for CCC[C@@H]1C[C@@H](C(=O)N[C@@H]([C@H]2O[C@H](SC)[C@H](O)[C@@H](O)[C@H]2O)[C@H](C)Cl)N(C)C1 ?
Reply: 24 mm

Task item: Item under review: CCCCCC(=O)N1C[C@H]([C@H](C)CF)C1=O . Reported Diameter of inhibition zone?
Reply: 79 mm

Task item: Which Diameter of inhibition zone is reported for this molecule? CCCC(=O)OC[C@@H](C)[C@H]1CN(C(=O)CCC)C1=O
Reply: 63 mm

Task item: Name the recorded Diameter of inhibition zone for CC(=O)OC/C(C)=C1/CN(C(C)=O)C1=O .
Reply: 0 mm

Task item: Requested read-out: Diameter of inhibition zone. Entry: CCCC(=O)OC/C(C)=C1/CN(C(=O)CCC)C1=O
Reply: 0 mm

Task item: Fill in: Diameter of inhibition zone of CCCCOC(=O)N1C/C(=C(\C)CN=[N+]=[N-])C1=O is ___
Reply: 36 mm

Task item: Look at this molecule and give its reported Diameter of inhibition zone. CCCCCC(=O)N1C/C(=C(/C)CO)C1=O
Reply: 28 mm

Task item: State the recorded Diameter of inhibition zone for this entry: CCCCCC(=O)N1C/C(=C(\C)Cn2nnc(C(=O)OC)c2C(=O)OC)C1=O
Reply: 0 mm

Task item: // Diameter of inhibition zone lookup, key: CCCCCC(=O)OC/C(C)=C1/CN(C(=O)CCCCC)C1=O
Reply: 0 mm

Task item: What value of Diameter of inhibition zone has been recorded for this entry: CCCCOC(=O)N1C[C@H]([C@H](C)CNC(C)=O)C1=O
Reply: 19 mm
